Record set of Ki for target or system butyrylcholinesterase (BChE) (Homo sapiens).
One number for each entry, in µM.

The cases that follow already have their Ki on record.
stdin: Recorded Ki for `NC(=O)N/N=C/c1ccc(OS(=O)(=O)c2cccc3ccccc23)cc1` , please?
stdout: 9.08

stdin: Given the entry `NC(=O)N/N=C/c1ccc(OS(=O)(=O)c2ccc3ccccc3c2)cc1` , report its measured Ki.
stdout: 5.49

Next:
stdin: Quick check: Ki of `NC(=O)N/N=C/c1ccc(OS(=O)(=O)c2ccccc2OC(F)(F)F)cc1` ?
stdout: 11.9

---

Reported IC50 values, UniProtKB P06276.
Give bare numbers, in µM.

stdin: Data request, read-out IC50, for NC(=O)N/N=C/c1ccc(OS(=O)(=O)c2ccccc2)cc1 [Compound 1]
stdout: 139

stdin: # lookup: IC50 of NC(=O)N/N=C/c1ccc(OS(=O)(=O)c2ccc(C(F)(F)F)cc2)cc1 [Compound 10]
stdout: 139

stdin: Look up IC50: NC(=O)N/N=C/c1ccc(OS(=O)(=O)c2cccc(C(F)(F)F)c2)cc1 [Compound 9]
stdout: 147

Please look at the items below and tell me IC50 for each one, in order.
1. NC(=O)N/N=C/c1ccc(OS(=O)(=O)c2ccc(F)cc2)cc1 [Compound 2]
2. NC(=O)N/N=C/c1ccc(OS(=O)(=O)c2ccc([N+](=O)[O-])cc2)cc1 [Compound 15]
3. Cc1ccc(S(=O)(=O)Oc2ccc(/C=N/NC(N)=O)cc2)cc1 [Compound 6]
4. COc1ccc(S(=O)(=O)Oc2ccc(/C=N/NC(N)=O)cc2)cc1 [Compound 7]
5. NC(=O)N/N=C/c1ccc(OS(=O)(=O)c2ccc(Cl)cc2)cc1 [Compound 3]

stdout:
[161, 347, 178, 136, 141]

---

Exercise: state measured pIC50 for each of the compounds provided.
- Target or system: butyrylcholinesterase (BChE) (Homo sapiens)
- Sequence (P06276 29-602): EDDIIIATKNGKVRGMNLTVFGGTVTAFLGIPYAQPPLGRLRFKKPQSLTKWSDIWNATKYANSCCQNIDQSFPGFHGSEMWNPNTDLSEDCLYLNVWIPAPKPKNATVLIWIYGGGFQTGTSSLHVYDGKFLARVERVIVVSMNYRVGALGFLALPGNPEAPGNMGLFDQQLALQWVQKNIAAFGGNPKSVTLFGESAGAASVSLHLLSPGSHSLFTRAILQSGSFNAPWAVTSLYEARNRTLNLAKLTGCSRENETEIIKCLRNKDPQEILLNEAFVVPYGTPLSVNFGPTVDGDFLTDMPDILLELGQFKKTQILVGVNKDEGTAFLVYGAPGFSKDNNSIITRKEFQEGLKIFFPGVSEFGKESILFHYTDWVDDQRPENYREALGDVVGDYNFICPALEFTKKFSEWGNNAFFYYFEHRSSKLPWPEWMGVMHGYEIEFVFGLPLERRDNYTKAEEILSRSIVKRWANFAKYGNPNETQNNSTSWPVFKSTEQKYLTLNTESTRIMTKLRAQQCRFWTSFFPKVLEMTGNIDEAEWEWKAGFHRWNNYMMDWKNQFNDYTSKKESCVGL
- Test name: In vitro BChE inhibition (Ellman's technique)
- Assay type: biochemical
- Measurement parameters: Ellman assay, five concentrations, triplicate
- Experimental: The semicarbazone derivatives were evaluated for their inhibitory activities against human acetylcholinesterase (AChE) and butyrylcholinesterase (BChE) enzymes using standard in vitro assays. […] Each compound’s inhibitory effects on the enzymes were evaluated at five different concentrations. […] The absorbance of the blank solutions was measured before the substrate was added. […] Enzyme activity was kinetically assessed at 408 nm by using a microplate reader. […]
Answers are plain numbers, as −log10 of the molar value.

I have 2 compounds here; please give me pIC50 for each one.
1. NC(=O)N/N=C/c1ccc(OS(=O)(=O)c2ccccc2C(F)(F)F)cc1
2. NC(=O)N/N=C/c1ccc(OS(=O)(=O)c2ccc(I)cc2)cc1

stdout:
3.76
3.76

stdin: Param item = `NC(=O)N/N=C/c1ccc(OS(=O)(=O)c2ccc(Br)cc2)cc1` ; retrieve measured pIC50.
stdout: 3.75

All figures here come from paper PMC12809313.
